experiment: Plasma concentration in Sprague-Dawley rat after 30 mins; type: ADME, organism-based
MEASURED_METRIC: concentration at 0.5 h (ng/mL)

INSERT INTO measurements (smiles_repr, test_result) VALUES
  ('CC1(NC2=NS(=O)(=O)c3sc(Br)cc3N2)CC1', 340);

====

experiment: Cmax in Sprague-Dawley rat at 2.3 mg/kg, po; type: ADME, organism-based; design: dose 2.3 mg/kg, route oral; conditions: in vivo
MEASURED_METRIC: Cmax (ng/mL)

INSERT INTO assay_data (smiles_repr, test_result) VALUES
  ('CC(C)(NC1=NS(=O)(=O)c2sc(Cl)cc2N1)c1ccccc1', 2590);
